TEST_SYSTEM: Alpha-2C adrenergic receptor (Homo sapiens) (UniProt P18825)
Sequence (P18825 whole entry, looked up): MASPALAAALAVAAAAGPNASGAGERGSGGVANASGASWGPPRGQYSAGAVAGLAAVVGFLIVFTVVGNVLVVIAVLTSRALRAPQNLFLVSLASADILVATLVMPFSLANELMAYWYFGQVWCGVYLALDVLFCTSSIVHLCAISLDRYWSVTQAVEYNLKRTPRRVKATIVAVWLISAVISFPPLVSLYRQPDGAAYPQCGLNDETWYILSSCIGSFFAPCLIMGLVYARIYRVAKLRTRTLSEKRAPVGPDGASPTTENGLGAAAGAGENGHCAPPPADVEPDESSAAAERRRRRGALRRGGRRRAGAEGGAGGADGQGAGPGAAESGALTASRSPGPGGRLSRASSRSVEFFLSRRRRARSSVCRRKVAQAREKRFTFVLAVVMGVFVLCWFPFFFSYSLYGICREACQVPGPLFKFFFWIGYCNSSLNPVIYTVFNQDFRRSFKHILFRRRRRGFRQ
EXPERIMENT_DESCRIPTION: compounds altering alpha2C-coupled GIRK flux – cell-based, HEK293 alpha2C/GIRK1/2, thallium flux, primary screen (AID 624);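 further: slope of fluorescence ratio to pre-addition baseline per second over 15 to 24 s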
CONDITION_DETAILS: thallium flux BTC fluorescence, at 10 µM, actives lie on both sides
Could you please mark met for values of slope below 0.005 and not met for values at or above it?

Worked set:
[[record]]
molecule = "CC(=O)OCC(=O)[C@@]1(O)CC[C@H]2[C@@H]3CCC4=CC(=O)C=C[C@]4(C)[C@H]3[C@@H](O)C[C@@]21C"
test_system = "Alpha-2C adrenergic receptor (Homo sapiens) (UniProt P18825)"
classification = "met"

[[record]]
molecule = "O=C1CCc2cc(OCCCCc3nnnn3C3CCCCC3)ccc2N1"
test_system = "Alpha-2C adrenergic receptor (Homo sapiens) (UniProt P18825)"
classification = "met"

[[record]]
molecule = "OCCOCCN1CCN(C(c2ccccc2)c2ccc(Cl)cc2)CC1 (stereo unspecified)"
test_system = "Alpha-2C adrenergic receptor (Homo sapiens) (UniProt P18825)"
classification = "met"


[in] slope strictly < 0.005 for this molecule? CCn1cc(C(=O)O)c(=O)c2ccc(C)nc21
[out] met
